Reported %Inh values follow for various molecules
System: ABL1-phosphorylated
setup.conditions: concentration: 1 μM, replicates: in singlicate; n = 1;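 note: KINOMEscan kinase panel screen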
Return type: number; implicit unit %.

Record excerpt, results attached:
Hello, I am looking for reported %Inh with ABL1-phosphorylated for `CN1CCC(n2cnc(-c3ccc(F)cc3)c2-c2ccnc(NC3CCNCC3)n2)CC1` . Could you help?
0

Hello, I am looking for reported %Inh with ABL1-phosphorylated for `C[C@H]1CC[C@@H](C(=O)Nc2ccccc2)CN1c1cc(-c2ccc3c(N)n[nH]c3c2)nc(N)n1` . Could you help?
8

Hello, I am looking for reported %Inh with ABL1-phosphorylated for `Cc1ccc(O)cc1Nc1cc(C(F)(F)F)nc2ccc(-c3ccncc3)cc12` . Could you help?
7

Hello, I am looking for reported %Inh with ABL1-phosphorylated for `Cc1ccc(NC(=O)c2cccc(C#N)c2)cc1-c1ccc(C(=O)Nc2ccncc2)cc1` . Could you help?
10

Would you kindly look at the next entry?
Hello, I am looking for reported %Inh with ABL1-phosphorylated for `Cl.Fc1ccccc1COc1ccc(Nc2ncnc3ccc(-c4nnc(C(F)(F)F)o4)cc23)cc1Cl` . Could you help?
0

====

Tested on: DCAMKL1
Construct: gene DCLK1
setup.conditions: concentration: 1 μM, replicates: in singlicate; n = 1
readout.label: %Inh

Hello, I am looking for reported %Inh with DCAMKL1 for COc1ccc(NC(=O)c2ccc(-c3cc(-c4nnc(C)o4)ccc3C)cc2)cc1 [GW595885] . Could you help?
8%

More entries:
Hello, I am looking for reported %Inh with DCAMKL1 for CSc1nn2c(=O)cc(N3CCOCC3)nc2n1Cc1cccc(Cl)c1Cl [GSK2347225] . Could you help?
29%

Hello, I am looking for reported %Inh with DCAMKL1 for `OCCOCCn1ccc2ncnc(Nc3ccc(Oc4cccc(Cl)c4)c(Cl)c3)c21` . Could you help?
36%

====

Reported %Inh values follow for various compounds
Tested on: EPHA1
setup.conditions: concentration: 1 μM, replicates: in singlicate; n = 1
Return type: number; implicit unit %.

Record excerpt, results attached:
Hello, I am looking for reported %Inh with EPHA1 for Cl.c1ccc(Cn2ncc3cc(Nc4ncnc5ccccc45)ccc32)cc1 [GW273749] . Could you help?
28

Hello, I am looking for reported %Inh with EPHA1 for CNc1nccc(-c2c(-c3ccc(F)cc3)ncn2CCCN2CCOCC2)n1 [SB-222516] . Could you help?
14

Hello, I am looking for reported %Inh with EPHA1 for FC(F)(F)c1ccc(-c2cc(-c3c[nH]nc3-c3ccccn3)ccn2)cc1 [GW599550] . Could you help?
2

Hello, I am looking for reported %Inh with EPHA1 for `Cn1ccc2ncnc(Oc3ccc(NC(=O)Nc4cccnc4)c(Cl)c3)c21` . Could you help?
0

Would you kindly look at the next entry?
Hello, I am looking for reported %Inh with EPHA1 for `OCCOCCn1ccc2ncnc(Nc3ccc(Oc4cccc(Cl)c4)c(Cl)c3)c21` . Could you help?
0

====

Reported %Inh values follow for various compounds
Test system: TGFBR2
setup.conditions: concentration: 1 μM, replicates: in singlicate; n = 1
Return type: number; implicit unit %.

Record excerpt, results attached:
Which %Inh is reported for this compound? O=C(Nc1ccccc1F)NC1CCN(c2ccnc(Nc3ccc(F)cc3)n2)C1 (stereo not drawn) [GSK1379722]
0

Which %Inh is reported for this compound? `Fc1ccc(-c2ncn(CCCNCc3ccccc3)c2-c2ccncc2)cc1`
10

Which %Inh is reported for this compound? Nc1nc(-c2ccccn2)c(-c2ccnc3ccccc23)s1 [GW548057]
50

More entries:
Which %Inh is reported for this compound? CC(C)(C)c1ccc(-n2cnc3c(N)ncnc32)cc1 [SKF-97263]
6

Which %Inh is reported for this compound? FC(F)(F)c1ccc(-c2cc(-c3c[nH]nc3-c3ccccn3)ccn2)cc1 [GW599550]
77

Which %Inh is reported for this compound? COc1ccc(Nc2nccc(N3CCC(NC(=O)Nc4ccc5c(c4)OCO5)C3)n2)cc1 (stereo not drawn) [GSK1379745]
0

Which %Inh is reported for this compound? CCn1c(-c2ccncc2)nc2cnccc21 [SB-735216]
0

Which %Inh is reported for this compound? Nc1nccc2scc(-c3ccc4c(c3)CCN4C(=O)Cc3cc(F)ccc3F)c12 [GSK2587663]
0

Which %Inh is reported for this compound? COc1ccc(NC(=O)Nc2ccc(C)c(-c3ccc(C(=O)Nc4ccncc4)cc3)c2)cc1 [GSK1398475]
0

Which %Inh is reported for this compound? O=C(c1ccc(-c2cc(-c3c[nH]nc3-c3ccccn3)ccn2)cc1)N1CCCC1 [GW792479]
39

Which %Inh is reported for this compound? CCCc1ccc(S(=O)(=O)NC2CCN(c3ccnc(Nc4ccc(OC)cc4)n3)C2)cc1 (stereo not drawn) [GSK1379737]
0

Which %Inh is reported for this compound? Nc1nc(-c2ccc3c(N)n[nH]c3c2)cc(N2CCCCC2)n1 [GSK2228768]
0

Which %Inh is reported for this compound? `O=C(CCO)NCCn1ccc2ncnc(Nc3ccc(Oc4cccc(C(F)(F)F)c4)c(Cl)c3)c21`
0

Which %Inh is reported for this compound? FC(F)(F)c1cc(Nc2nccc(-c3c(-c4ccc(Cl)cc4)nn4ncccc34)n2)ccc1Cl [GW829351]
0

Which %Inh is reported for this compound? COc1ccc(-c2oc3ncnc(N)c3c2-c2ccc(OC)cc2)cc1 [SB-589132]
12

====

Tested on: CDKL1
setup.conditions: concentration: 1 μM, replicates: in singlicate; n = 1
readout.label: %Inh

Which %Inh is reported for this molecule? COc1ccc(NC(=O)Nc2ccc(C)c(-c3ccc(C(=O)Nc4ccncc4)cc3)c2)cc1 [GSK1398475]
1%

Which %Inh is reported for this molecule? CS(=O)(=O)CCNCc1nc(-c2ccc3ncnc(Nc4ccc(OCc5cccc(F)c5)c(Cl)c4)c3c2)cs1.Cl [GW583340]
0%

Which %Inh is reported for this molecule? CCn1c(-c2ccncc2)nc2cnccc21 [SB-735216]
12%

Which %Inh is reported for this molecule? `Cn1ccc2ncnc(Nc3ccc(Oc4cccc(Cl)c4)c(Cl)c3)c21`
10%

====

Test system: IKK-epsilon
Construct: gene IKBKE
setup.conditions: concentration: 1 μM, replicates: in singlicate; n = 1
Reported %Inh values follow for various molecules
Return type: number; implicit unit %.

Which %Inh is reported for this molecule? `CNc1nccc(-c2c(-c3ccc(F)cc3)ncn2C2CCN(C)CC2)n1`
0

Which %Inh is reported for this molecule? `Cl.c1ccc(Cn2ncc3cc(Nc4ncnc5ccccc45)ccc32)cc1`
24

Which %Inh is reported for this molecule? `Nc1n[nH]c2nnc(-c3ccccc3)cc12`
22

More entries:
Which %Inh is reported for this molecule? COc1ccc(Nc2nccc(N3CCC(NC(=O)Nc4ccc5c(c4)OCO5)C3)n2)cc1 (stereo not drawn)
12

Which %Inh is reported for this molecule? `Clc1cccc(-c2nc(Nc3ccncc3)c3ccccc3n2)c1`
0

Which %Inh is reported for this molecule? `Fc1ccc(Nc2nccc(-c3c(-c4ccc(Cl)cc4)nn4ncccc34)n2)cc1F`
0

Which %Inh is reported for this molecule? `c1ccc(-c2ccc3c(-c4ccnc(Nc5ccc6c(c5)OCCO6)n4)cnn3n2)cc1`
6

Which %Inh is reported for this molecule? `Nc1nc(-c2ccc3c(N)n[nH]c3c2)cc(N2CCCCC2)n1`
29

Which %Inh is reported for this molecule? `CC(C)N1CCC(n2cnc(-c3ccc(F)cc3)c2-c2ccnc(N)n2)CC1`
0

Which %Inh is reported for this molecule? `O=C(NCCCN1CCCC1=O)c1cnc(NCc2cc(Cl)ccc2Cl)nc1NC1CCNCC1`
0

Which %Inh is reported for this molecule? `FC(F)(F)c1ccc(-c2nn3ncccc3c2-c2ccnc(Nc3cccc(C(F)(F)F)c3)n2)cc1`
0

Which %Inh is reported for this molecule? `CSc1nn2c(=O)cc(N3CCOCC3)nc2n1Cc1cccc(Cl)c1Cl`
28

====

System: PDPK1
setup.conditions: concentration: 1 μM, replicates: in singlicate; n = 1
readout.label: %Inh (%)
Return type: number; implicit unit %.

Hello, I am looking for reported %Inh with PDPK1 for `Clc1ccc(-c2cc(-c3c[nH]nc3-c3ccccn3)ccn2)cc1` . Could you help?
0

====

Test system: PRKCH
setup.conditions: concentration: 1 μM, replicates: in singlicate; n = 1
Reported %Inh values follow for various compounds
Return type: number; implicit unit %.

Which %Inh is reported for this compound? `Cl.c1ccc(Cn2ncc3cc(Nc4ncnc5ccccc45)ccc32)cc1`
0

Which %Inh is reported for this compound? `O=c1cc(N2CCOCC2)nc2n(Cc3cccc(Cl)c3)ccn12`
0

Which %Inh is reported for this compound? `O=C(Nc1ccccc1)Nc1ccc(Oc2ccc3nccn3n2)cc1`
0

Which %Inh is reported for this compound? `Cc1cccc(-c2nc(Nc3ccc4[nH]nnc4c3)c3ccccc3n2)n1`
0

Which %Inh is reported for this compound? `COC(=O)c1cccc(NC(=O)NCCNc2ccnc(Nc3ccc(F)cc3)n2)c1`
34

Which %Inh is reported for this compound? `FC(F)(F)c1ccc(-c2nn3ncccc3c2-c2ccnc(Nc3cccc(C(F)(F)F)c3)n2)cc1`
0

Which %Inh is reported for this compound? `CSc1nn2c(=O)cc(N3CCOCC3)nc2n1Cc1cccc(Cl)c1Cl`
23

Which %Inh is reported for this compound? `O=C(Nc1n[nH]c2nc(-c3ccco3)c(Br)cc12)c1ccc(CN2CCCC2)cc1.O=C(O)[C@H](O)[C@@H](O)C(=O)O`
17

More entries:
Which %Inh is reported for this compound? `CS(=O)(=O)CCNCc1nc(-c2ccc3ncnc(Nc4ccc(OCc5cccc(F)c5)c(Cl)c4)c3c2)cs1.Cl`
0

Which %Inh is reported for this compound? `Oc1ccc2ncnc(Nc3ccc(OCc4ccccc4)cc3)c2c1`
6

Which %Inh is reported for this compound? `Cn1cc(-c2ccc3c(c2)CCN3C(=O)Cc2cccc(C(F)(F)F)c2)c2c(N)ncnc21`
23

Which %Inh is reported for this compound? `Cn1ccc2ncnc(Nc3ccc(Oc4cccc(Cl)c4)c(Cl)c3)c21`
3

Which %Inh is reported for this compound? `N#Cc1ccc(Oc2ccc(Nc3ncnc4cc[nH]c34)cc2Cl)cc1`
22

Which %Inh is reported for this compound? `Cc1ccc(NC(=O)c2cccc(C#N)c2)cc1-c1ccc(C(=O)Nc2ccncc2)cc1`
27

Origin of the recorded values: paper PMC5540273
